# system name: full-length beta-Catenin (Uniprot ID P35222) (Homo sapiens)
# Construct: 10 nM full-length beta-Catenin (Uniprot ID P35222)
# Sequence (P35222 whole entry): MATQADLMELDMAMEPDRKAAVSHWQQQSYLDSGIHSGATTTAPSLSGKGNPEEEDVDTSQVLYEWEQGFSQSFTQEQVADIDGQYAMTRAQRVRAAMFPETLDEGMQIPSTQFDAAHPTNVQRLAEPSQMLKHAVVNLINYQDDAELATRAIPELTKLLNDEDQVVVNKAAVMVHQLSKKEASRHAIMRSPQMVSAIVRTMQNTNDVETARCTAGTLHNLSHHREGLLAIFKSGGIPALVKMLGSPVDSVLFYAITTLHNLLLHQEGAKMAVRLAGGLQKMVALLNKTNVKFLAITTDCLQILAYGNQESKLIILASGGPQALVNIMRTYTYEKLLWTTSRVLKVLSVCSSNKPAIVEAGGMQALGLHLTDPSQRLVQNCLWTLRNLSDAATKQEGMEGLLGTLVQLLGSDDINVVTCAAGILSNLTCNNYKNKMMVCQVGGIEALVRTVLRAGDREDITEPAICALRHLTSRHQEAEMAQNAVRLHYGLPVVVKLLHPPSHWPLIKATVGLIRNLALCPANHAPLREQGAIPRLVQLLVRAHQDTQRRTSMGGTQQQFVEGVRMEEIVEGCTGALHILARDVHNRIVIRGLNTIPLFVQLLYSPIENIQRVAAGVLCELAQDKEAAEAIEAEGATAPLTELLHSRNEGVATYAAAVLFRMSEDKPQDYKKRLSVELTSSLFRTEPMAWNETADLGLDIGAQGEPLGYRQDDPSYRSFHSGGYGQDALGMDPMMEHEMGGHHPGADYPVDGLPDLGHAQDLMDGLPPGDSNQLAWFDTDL
# experimental details: Fluorescence polarization IC50 (beta-catenin / 5FAM-TCF4 10-53 competition)
# Assay type: binding
# protocol conditions: read-out: beta-Catenin FP IC50
measure name: IC50 (nM)
Numbers only here, please. The scale is nM.

For orientation, consider the following solved cases.
CC(=O)N1CCC[C@]12CC=CCCCC1(CCCC=CCCCCCC[C@@](C)(C(=O)N[C@@H](Cc3ccccc3Cl)C(=O)N[C@@H](Cc3csc4ccccc34)C(=O)N[C@@H](C(N)=O)[C@H](C)O)NC(=O)[C@H](CC(C)C)NC(=O)[C@H](Cc3ccccc3)NC(=O)[C@H](C)NC(=O)[C@H](C)NC(=O)[C@H](CCC(=O)O)NC(=O)[C@H](CC(=O)O)NC1=O)NC(=O)[C@H](CC(C)(C)C)NC(=O)[C@H](CC(=O)O)NC2=O (stereo partly drawn)
100
CC(=O)N1CCC[C@]12CC=CCCCC1(CCCC=CCCCOC(=O)N3CC[C@@](C(=O)N[C@@H](Cc4ccsc4)C(=O)N[C@@H](Cc4csc5ccccc45)C(=O)N[C@@H](CCC(N)=O)C(N)=O)(C3)NC(=O)[C@H](CC(N)=O)NC(=O)[C@H](Cc3ccccc3)NC(=O)[C@H](C)NC(=O)[C@H](C)NC(=O)[C@H]([C@@H](C)O)NC(=O)[C@H](CC(=O)O)NC1=O)NC(=O)[C@H](CC(C)(C)C)NC(=O)[C@H](CC(=O)O)NC2=O (stereo partly drawn)
6

Attention now shifts to the item below.
Could you tell me which IC50 is on file for CC(=O)N1CCC[C@]12CC=CCCCC1(CCCC=CCCCOC(=O)N3CC[C@@](C(=O)N[C@@H](Cc4ccsc4)C(=O)N[C@@H](Cc4csc5ccccc45)C(N)=O)(C3)NC(=O)[C@H](CC(N)=O)NC(=O)[C@H](Cc3ccccc3)NC(=O)[C@H](C)NC(=O)[C@H](C)NC(=O)[C@H](CC(=O)O)NC(=O)[C@H](CC(=O)O)NC1=O)NC(=O)[C@H](CC(C)(C)C)NC(=O)[C@H](CC(=O)O)NC2=O (stereo partly drawn) ?
6
